Values were extracted from patent US5789432A.

Molecular target: Aromatase (Homo sapiens)
Construct: Microsomes of human placenta; from tissue; host or cells: human placenta, microsomes
Sequence (P11511 whole entry): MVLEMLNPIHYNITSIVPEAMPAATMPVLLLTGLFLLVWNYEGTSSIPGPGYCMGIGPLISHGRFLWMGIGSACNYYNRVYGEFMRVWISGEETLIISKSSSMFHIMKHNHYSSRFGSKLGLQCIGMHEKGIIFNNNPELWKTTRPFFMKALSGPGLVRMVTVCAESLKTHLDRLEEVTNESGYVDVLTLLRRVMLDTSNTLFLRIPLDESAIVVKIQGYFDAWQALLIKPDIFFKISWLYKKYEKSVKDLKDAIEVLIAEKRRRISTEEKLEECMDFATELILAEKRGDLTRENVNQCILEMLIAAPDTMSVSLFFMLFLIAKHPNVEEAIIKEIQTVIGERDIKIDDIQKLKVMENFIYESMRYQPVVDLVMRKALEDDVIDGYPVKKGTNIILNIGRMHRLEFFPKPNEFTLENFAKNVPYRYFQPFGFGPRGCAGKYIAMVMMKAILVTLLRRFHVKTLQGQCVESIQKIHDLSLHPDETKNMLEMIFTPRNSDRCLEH
Assay: Aromatase-inhibiting activity (radiometric, H^14COOH release; method of Covey et al.)
Format: biochemical
Conditions: read-out: IC50 of optical isomers; Example 7; same way as in Example 6
So I've got a bunch of molecules here, and I need their IC50 values.
Only the number, expressed in nM, is required.

Data request: Kindly indicate its recorded IC50. Item: O[C@]1(Cc2ccc(Cl)cc2)CCC[C@@H]1Cn1ccnc1 (stereo in doubt) [I-3 (+)]
Data returned: 80

Data request: Kindly indicate its recorded IC50. Item: O[C@]1(Cc2ccc(Cl)cc2)CCC[C@@H]1Cn1ccnc1 (stereo in doubt) [I-3 (-)]
Data returned: 4

====

So I've got a bunch of compounds here, and I need their pIC50 values.
Biological target: Aromatase (Homo sapiens)
Construct: Microsomes of human placenta; from tissue; host or cells: human placenta, microsomes
Experiment: Aromatase-inhibiting activity (radiometric, H^14COOH release; method of Covey et al.)
Type: biochemical
Conditions: Table 1; microsomes of human placenta, [19-14C] 4-androstene-3,17-dione 1×10^-6 M, 37° C., 30 minutes; read-out: IC50 (50% aromatase activity-inhibiting concentration)
Interpret pIC50 as the negative base-10 log of the concentration measured in mol/L.

Data request: Kindly indicate its recorded pIC50. Item: CC1(C)CC[C@@H]2Cc3ccc(Cl)cc3O[C@]21Cn1ccnc1
Data returned: 7.35

Data request: Kindly indicate its recorded pIC50. Item: O[C@@]1(Cc2ccccc2)CCC[C@@H]1Cn1ccnc1 (relative stereo)
Data returned: 7.30

Data request: Kindly indicate its recorded pIC50. Item: O[C@@]1(c2ccccc2)CCC[C@H]1Cn1ccnc1 (relative stereo)
Data returned: 7.46

Data request: Kindly indicate its recorded pIC50. Item: O[C@@]1(c2ccc(Cl)cc2)CCC[C@H]1Cn1ccnc1 (relative stereo)
Data returned: 7.52

Data request: Kindly indicate its recorded pIC50. Item: Clc1ccc2c(c1)O[C@]1(Cn3ccnc3)CCC[C@@H]1C2
Data returned: 7.52

Data request: Kindly indicate its recorded pIC50. Item: CC(C)[C@](O)(CCn1ccnc1)c1ccc(Cl)cc1
Data returned: 8.00
